experimental_details: in vivo
settings: male, BALB/c, mouse, plasma, ip, 5 mg/kg
endpoint_name: Cmax (ng/mL)
Give just the number in ng/mL; leave the unit off.

In: Which Cmax is listed for O=C1CCc2cc(OC[C@H](O)CN3CCN(c4ccc(C(F)(F)F)cc4)CC3)ccc2N1 [NP10679] ?
Out: 1430

* * *

experimental_details: SAD study NP10679-101, plasma pharmacokinetics
Type: in vivo, human
settings: human, plasma; Cohort 5, 150 mg single IV; read-out: Vss
endpoint_name: Vd (L)
Give just the number in L; leave the unit off.

In: Which Vd is listed for O=C1CCc2cc(OC[C@H](O)CN3CCN(c4ccc(C(F)(F)F)cc4)CC3)ccc2N1 ?
Out: 250

* * *

experimental_details: SAD study NP10679-101, plasma pharmacokinetics
Assay type: in vivo, human
settings: human, plasma; Cohort 2, 15 mg single IV
endpoint_name: AUC(0-inf)

In: Which AUC(0-inf) is listed for O=C1CCc2cc(OC[C@H](O)CN3CCN(c4ccc(C(F)(F)F)cc4)CC3)ccc2N1 [NP10679] ?
Out: 1280 ng·h/mL

* * *

experimental_details: SAD study NP10679-101, plasma pharmacokinetics
Format: in vivo, human
settings: human, plasma; Cohort 3, 50 mg single IV, harmonic mean; read-out: T1/2* (converted)
endpoint_name: half-life (h)
Give just the number in h; leave the unit off.

In: Which half-life is listed for O=C1CCc2cc(OC[C@H](O)CN3CCN(c4ccc(C(F)(F)F)cc4)CC3)ccc2N1 ?
Out: 17.8

* * *

assayed_system: human GluN1/GluN2B (Homo sapiens (Human), UniProt Q05586+Q13224)
Sequence (Q13224 27-1484, other chains not shown): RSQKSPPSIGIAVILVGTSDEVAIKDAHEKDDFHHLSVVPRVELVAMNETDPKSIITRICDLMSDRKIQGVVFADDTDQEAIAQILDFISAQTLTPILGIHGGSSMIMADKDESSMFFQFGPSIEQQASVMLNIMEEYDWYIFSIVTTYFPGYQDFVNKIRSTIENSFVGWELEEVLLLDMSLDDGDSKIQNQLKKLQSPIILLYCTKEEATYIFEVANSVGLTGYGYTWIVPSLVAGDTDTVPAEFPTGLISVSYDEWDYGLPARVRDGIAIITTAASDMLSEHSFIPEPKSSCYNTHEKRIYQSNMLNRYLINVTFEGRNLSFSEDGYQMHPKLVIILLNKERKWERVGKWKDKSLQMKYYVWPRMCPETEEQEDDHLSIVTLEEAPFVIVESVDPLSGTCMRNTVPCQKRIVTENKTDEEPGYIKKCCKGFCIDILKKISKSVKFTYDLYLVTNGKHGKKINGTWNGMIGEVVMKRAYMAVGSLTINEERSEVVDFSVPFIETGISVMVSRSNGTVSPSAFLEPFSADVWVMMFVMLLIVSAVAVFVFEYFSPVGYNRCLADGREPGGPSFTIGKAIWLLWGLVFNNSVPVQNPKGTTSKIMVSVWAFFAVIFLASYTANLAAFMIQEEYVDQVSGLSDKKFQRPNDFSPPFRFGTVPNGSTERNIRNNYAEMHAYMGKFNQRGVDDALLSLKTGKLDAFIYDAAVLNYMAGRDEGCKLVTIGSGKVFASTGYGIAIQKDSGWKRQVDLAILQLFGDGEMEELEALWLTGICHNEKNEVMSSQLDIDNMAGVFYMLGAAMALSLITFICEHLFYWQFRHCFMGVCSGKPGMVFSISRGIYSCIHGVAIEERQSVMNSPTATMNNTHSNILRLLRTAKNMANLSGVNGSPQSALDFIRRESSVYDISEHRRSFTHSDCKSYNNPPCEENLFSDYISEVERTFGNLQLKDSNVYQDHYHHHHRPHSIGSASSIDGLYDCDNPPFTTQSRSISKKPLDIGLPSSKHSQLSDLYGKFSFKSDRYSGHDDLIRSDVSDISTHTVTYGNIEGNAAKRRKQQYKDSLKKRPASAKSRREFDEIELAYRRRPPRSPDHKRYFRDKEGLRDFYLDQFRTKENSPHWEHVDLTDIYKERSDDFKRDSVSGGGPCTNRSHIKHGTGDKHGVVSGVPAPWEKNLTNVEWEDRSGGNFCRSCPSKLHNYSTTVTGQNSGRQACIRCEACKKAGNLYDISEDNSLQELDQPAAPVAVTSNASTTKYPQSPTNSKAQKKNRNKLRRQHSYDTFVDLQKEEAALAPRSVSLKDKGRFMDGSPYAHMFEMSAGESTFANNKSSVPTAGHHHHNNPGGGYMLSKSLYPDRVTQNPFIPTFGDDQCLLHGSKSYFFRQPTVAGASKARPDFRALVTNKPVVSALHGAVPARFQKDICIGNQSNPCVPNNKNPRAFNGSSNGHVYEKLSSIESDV
experimental_details: Two electrode voltage-clamp recordings from Xenopus laevis oocytes, GluN2B potency and pH dependence
Assay type: cell-based
settings: ratio of IC50 at pH 7.6 to IC50 at pH 6.9
Quick rule: pH Boost of at least 6 means Condition met, below that means Condition not met.

In: Form field: pH Boost at least 6? Entry: NC(=O)Nc1ccc(OC[C@H](O)CN2CCN(c3ccc(Cl)cc3)CC2)cc1
Out: Condition not met

In: Form field: pH Boost at least 6? Entry: Cc1ccc(N2CCN(C[C@@H](O)COc3ccc(O)cc3)CC2)cc1
Out: Condition met

In: Form field: pH Boost at least 6? Entry: NC(=O)Nc1ccc(OC[C@H](O)CN2CCN(c3ccc(C(F)(F)F)cc3)CC2)cc1
Out: Condition not met

* * *

assayed_system: human GluN1/GluN2B (Homo sapiens (Human), UniProt Q05586+Q13224)
experimental_details: Two electrode voltage-clamp recordings from Xenopus laevis oocytes, GluN2B potency and pH dependence
Type: cell-based
settings: pH 7.6; read-out: IC50 (μM) pH 7.6
Labelling: IC50 reported below 0.5 µM becomes MET; at or above becomes NOT MET.

Solved entries:
>>> class_name("Oc1ccc(OC[C@@H](O)CN2CCN(c3ccc(F)c(F)c3)CC2)cc1 [Compound 10030]")
"NOT MET"
>>> class_name("Oc1ccc(OC[C@@H](O)CN2CCN(c3ccccc3)CC2)cc1 [Compound 10039]")
"MET"
>>> class_name("O=C1Cc2cc(OC[C@@H](O)CN3CCN(c4ccc(Cl)cc4)CC3)ccc2N1 [Compound 10146]")
"MET"
>>> class_name("NC(=O)Nc1ccc(OC[C@H](O)CN2CCN(c3ccc(F)cc3)CC2)cc1 [Compound 10225]")
"NOT MET"

From here, focus on the item given below.
In: Here's an entry: NC(=O)Nc1ccc(OC[C@H](O)CN2CCN(c3ccc(Cl)cc3)CC2)cc1 [Compound 10165] . Is its IC50 below 0.5 µM?
Out: MET
